Protocol Description: Cytotoxicity against mouse macrophages assessed as cell viability at 100 ug/mL after 18 hrs by MTT assay
Format: cell-based, Macrophage
Cond: read-out: Activity
Measurement Type: viability at 18 h, 100 ug/mL (%)

                        mol_smiles  unit_of_measure  quantitative_readout
0  O=C(N/N=C/c1cccc(Cl)c1)c1ccncc1                %                   100
1   O=C(N/N=C/c1ccc(F)cc1)c1ccncc1                %                    96
2    COc1ccccc1/C=N/NC(=O)c1ccncc1                %                    98
3   N#Cc1ccccc1/C=N/NC(=O)c1ccncc1                %                    95
4  O=C(N/N=C/c1ccc(Cl)cc1)c1ccncc1                %                    96

---

Test system: Mycobacterium tuberculosis
Protocol Description: Antimycobacterial activity against rifampin and isoniazid-susceptible Mycobacterium tuberculosis H37Rv ATCC 27294 after 5 days by Alamar blue assay
Format: functional
Cond: 120 h
Measurement Type: MIC (mg/L)

>>> print(df.to_string())
                                    molecule  measurement_type  quantitative_readout
 0            N#Cc1ccccc1/C=N/NC(=O)c1ccncc1               MIC                  0.62
 1          N#Cc1cccc(/C=N/NC(=O)c2ccncc2)c1               MIC                  1.25
 2             O=C(N/N=C/c1ccccc1Br)c1ccncc1               MIC                     5
 3           O=C(N/N=C/c1cccc(Br)c1)c1ccncc1               MIC                   2.5
 4            CCOc1ccccc1/C=N/NC(=O)c1ccncc1               MIC                  1.25
 5            O=C(N/N=C/c1cccc(O)c1)c1ccncc1               MIC                  1.25
 6           O=C(N/N=C/c1ccc(Cl)cc1)c1ccncc1               MIC                  0.31
 7          N#Cc1ccc(/C=N/NC(=O)c2ccncc2)cc1               MIC                     5
 8           O=C(N/N=C/c1cccc(Cl)c1)c1ccncc1               MIC                  0.31
 9            O=C(N/N=C/c1ccc(F)cc1)c1ccncc1               MIC                  0.31
10  O=C(N/N=C/c1ccccc1)c1ccncc1 [N'-BENZYLIDENE ISONICOTINOHYDRAZIDE]               MIC                  3.12
11            O=C(N/N=C/c1cccc(F)c1)c1ccncc1               MIC                  3.12
12  O=C(N/N=C/c1cccc([N+](=O)[O-])c1)c1ccncc1               MIC                     5
13          CCOc1cccc(/C=N/NC(=O)c2ccncc2)c1               MIC                  1.25

Numbers sourced from ChEMBL document CHEMBL1141661.
